ASSAY_EXPLANATION: NFAT Signaling Pathway (AID 444);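 note: carbachol stimulus at about its EC50 of 1 µM final; % is set by controls: 0 for no effect and ±100 for the full control effect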
TEST_SETTINGS: Jurkat NFAT-bla M1, carbachol, beta-lactamase ratio, 5 h; at 7.69 µM (top of the series) unless noted
Inconclusive results are not listed. Activity calls are given as the source filed them. Calls come from the whole dose curve; as a rule, active = well fitted curve in either direction with a large enough effect (not every such curve was filed as active); inconclusive = small, poorly fitted or top-dose-only effect, or another doubt; inactive = flat fitted curve, though single readings scatter.
Answer with one of the outcomes Yes = active, No = inactive

Study these solved cases before continuing.
{"columns": ["SMILES_REPR", "CATEGORY"],
 "data": [
  ["COc1ccc(C[C@@H]2NC[C@H](O)[C@@H]2OC(C)=O)cc1", "Yes"],
  ["C1C[C@@H]2CN(CCCN3CCOCC3)[C@@H](C1)O2", "No"],
  ["COc1ccc(C(=O)O[C@H]2CC[C@@]3(C)[C@H]4CC[C@H]5[C@]3(C[C@]3(O)[C@H]6CN7C[C@H](C)CC[C@H]7[C@](C)(O)[C@]6(O)[C@H](O)C[C@]53O)O[C@]24O)cc1OC", "No"],
  ["COc1cc([C@@H](O)CN)ccc1O", "No"],
  ["O=S(=O)(Nc1nccs1)c1ccc([As](=O)(O)O)cc1", "No"]
]}

Now consider a different compound.
Identify the outcome logged in this assay for the compound shown: O=C(O)[C@H]1CCN1
No

###

# activity change, negative = inhibition annotations
ASSAY_EXPLANATION: NFAT Signaling Pathway (AID 444);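 note: carbachol stimulus at about its EC50 of 1 µM final; % is set by controls: 0 for no effect and ±100 for the full control effect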
TEST_SETTINGS: Jurkat NFAT-bla M1, carbachol, beta-lactamase ratio, 5 h; at 7.69 µM (top of the series) unless noted
Results filed as inconclusive are left out. The source made the active and inactive calls. Calls come from the whole dose curve; as a rule, active = well fitted curve in either direction with a large enough effect (not every such curve was filed as active); inconclusive = small, poorly fitted or top-dose-only effect, or another doubt; inactive = flat fitted curve, though single readings scatter.

{"columns": ["SMILES_REPR", "MEASUREMENT"],
 "data": [
  ["CCC1(CCSC(=N)N)C(=O)NC(=O)NC1=O", "1.26% (inactive)"],
  ["CC(C)c1nccn1Cc1ccc(Cl)cc1Cl", "-21% (inactive)"],
  ["CCNC(=O)[C@@H]1O[C@@H](n2cnc3c(N)ncnc32)[C@@H](O)[C@H]1O", "-9.11% [at 38 µM] (inactive)"],
  ["O=C(O)C[C@H]1NCc2cc3ccccc3nc21", "13.5% (inactive)"],
  ["C[C@@H](Cc1ccc(Cl)cc1Cl)NO", "-11.6% (inactive)"]
]}

Please turn your attention to the following entry.
Query: activity change, negative = inhibition; subject: NCCc1ccc(S(=O)(=O)O)cc1[N+](=O)[O-]
-27.3% (inactive)

###

ASSAY_EXPLANATION: Cell Viability - LYMP2-002 (AID 977);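 note: compound exposure lasted 24 h at 37 °C; plate controls were DMSO only for no effect and 92 µM tetraoctylammonium bromide for full effect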
TEST_SETTINGS: LYMP2-002 lymphoblastoid cell viability, qHTS; series mostly up to 92.2 µM
Results filed as inconclusive are left out. Calls of active or inactive are those of the source. Calls come from the whole dose curve; as a rule, active = well fitted cell-killing curve with a large enough effect; inconclusive = small, poorly fitted or top-dose-only effect; inactive = flat fitted curve, though single readings scatter.
ENDPOINT_NAME: outcome

Examples with answers:
{"columns": ["COMPOUND", "MEASUREMENT"],
 "data": [
  ["O=C(Cl)c1ccccc1F", "inactive"],
  ["CC(C)(C)OOC(=O)c1ccccc1", "inactive"],
  ["Nc1ccc(-c2ccc(N)cc2)cc1", "inactive"],
  ["O=C(O)C(Cl)(Cl)Br", "inactive"],
  ["CN(C)C(=O)Nc1ccc(Cl)cc1", "inactive"]
]}

Query: outcome; subject: Cc1ccc(N)cc1C
inactive

Param item: CC(Cl)CCl (stereo not given)
inactive

Param item: Cl/C=C/Cl
inactive

Param item: N#CCCCCC#N
inactive

Param item: Clc1ccc(C(Cl)(Cl)Cl)c(Cl)c1
inactive

Param item: Brc1cccc(-c2ccccc2)c1
inactive

Param item: CC(=O)NNc1ccccc1
inactive

Param item: Nc1ccc([N+](=O)[O-])cc1N
inactive

###

ASSAY_EXPLANATION: Cell Viability - LYMP2-008 (AID 980);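 note: cells exposed to compound for 24 h at 37 °C; % is set by controls: 0 for no effect and ±100 for the full control effect; nearly all actives have a fitted effect of over 60% in size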
TEST_SETTINGS: LYMP2-008 lymphoblastoid cell viability, qHTS; series mostly up to 92.2 µM
Inconclusive results are not listed. Active and inactive are the calls of the source. The call rests on the fitted dose curve; in most records, active means well fitted cell-killing curve with a large enough effect; inconclusive means small, poorly fitted or top-dose-only effect; inactive means flat fitted curve, though single readings scatter.
ENDPOINT_NAME: outcome

Examples with answers:
{"columns": ["SMILES_REPR", "outcome"],
 "data": [
  ["Nc1ccc(Cc2ccc(N)c(Cl)c2)cc1Cl", "inactive"],
  ["c1ccc(Nc2ccc(Nc3ccccc3)cc2)cc1", "inactive"],
  ["Nc1cc(Cl)cc(Cl)c1", "inactive"],
  ["O=C(O)CBr", "inactive"],
  ["COC(C)(C)C", "inactive"],
  ["O=[N+]([O-])c1cc(Cl)c(Cl)cc1Cl", "inactive"],
  ["O=P(OCCCl)(OCCCl)OCCCl", "inactive"]
]}

Please turn your attention to the following entry.
Query: outcome; subject: c1ccc2c(c1)CCNC2
inactive

###

# activity change, negative = inhibition annotations
ASSAY_EXPLANATION: NFAT Signaling Pathway (AID 444);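 note: carbachol stimulus at about its EC50 of 1 µM final; % is set by controls: 0 for no effect and ±100 for the full control effect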
TEST_SETTINGS: Jurkat NFAT-bla M1, carbachol, beta-lactamase ratio, 5 h; at 7.69 µM (top of the series) unless noted
Method: NCGC Assay Overview: The nuclear factor of activated T cells (NFAT) family of transcription factors has been found primarily in most immune system cells and some other non-immune cells. NFAT plays the immunomodulatory role, primarily in T-cell activation and differentiation. […] NCGC Assay Protocol Summary: The cells were prepared in RPMI 1640 medium containing 0.1% dialyzed FBS and 25 mM HEPES at 1.6 x 10^6cell/ml. […] The %Activity was determined from the ratio of 460nm/530nm. […]
Records with an inconclusive call do not appear. Active and inactive are the calls of the source. Calls come from the whole dose curve; as a rule, active = well fitted curve in either direction with a large enough effect (not every such curve was filed as active); inconclusive = small, poorly fitted or top-dose-only effect, or another doubt; inactive = flat fitted curve, though single readings scatter.

Examples with answers:
{"columns": ["COMPOUND", "ENDPOINT_NAME", "MEASUREMENT"],
 "data": [
  ["COc1ccc2c(c1)[C@]13CCCC[C@@H]1[C@H](C2)NCC3", "activity change, negative = inhibition", "4.42% [at 38 µM] (inactive)"],
  ["O=C(Nc1cc[c]([Sb](=[O])([OH])[OH])cc1)c1ccccc1", "activity change, negative = inhibition", "23.1% (inactive)"],
  ["Nc1ccccc1O.O.O=C(O)[C@H]1[O][Sb][O][C@H]1C(=O)O", "activity change, negative = inhibition", "-17.5% (inactive)"],
  ["N[C@H](Cc1c[nH]c2ccccc12)P(=O)(O)O", "activity change, negative = inhibition", "-3.98% (inactive)"],
  ["C[C@@]12CC[C@H]3[C@@H](CC=C4C[C@H](OS(=O)(=O)O)CC[C@]43C)[C@H]1CCC2=O", "activity change, negative = inhibition", "-0.252% [at 38 µM] (inactive)"]
]}

Query: activity change, negative = inhibition; subject: O=[As](O)(O)c1ccc(NCc2ccccc2)cc1
11% (inactive)

Param item: c1ccc2c(c1)Sc1ccccc1N2C[C@H]1CN2CCC1CC2
-73.4% (active)

Param item: COC(=O)[C@@H]1c2cc3c(c(O)c2[C@@H](O)C[C@]1(C)O)C(=O)c1c(O)cc2c(c1C3=O)O[C@H]1O[C@@]2(C)[C@@H](O)[C@H](N(C)C)[C@H]1O
6.8% (inactive)

Param item: c1csc(CN2CCCC3(CCNCC3)C2)n1
-10.2% (inactive)

Param item: COc1cc2c(cc1OC)[C@@]13CCN4C=C5CCO[C@H]6CC(=O)N2[C@@H]1[C@@H]6[C@H]5C[C@H]43
16.4% (inactive)

Param item: C[C@H](Br)C(=O)N[C@H](CO)C(=O)O
5.22% (inactive)

Param item: O=C(O)[C@@H](O)[C@@H](O)[C@@H]1[O][Sb][O][C@@H]1CO
5.74% (inactive)

Param item: NC[C@H](O)c1cc(O)c(O)cc1F
4.54% [at 38 µM] (inactive)

Param item: CC(=O)[C@@H]1CC[C@H]2[C@H]3CC[C@H]4C[C@@H](O)CC[C@]4(C)[C@@H]3CC[C@]12C
-10.3% [at 38 µM] (inactive)

Param item: Cc1ccc(O)cc1 (tested in a mixture with another compound)
9.05% (inactive)

Param item: Nc1nc(N)c(N=Nc2ccc([As](=O)(O)O)cc2)c(=O)[nH]1
5.43% (inactive)

Param item: CCOC(=O)[C@@H]1[C@@H]2c3ccccc3-c3ccccc3[C@H]2C[C@H]1O
2.27% (inactive)

Param item: CC[C@@]1(O)C(=O)OCc2c1cc1n(c2=O)Cc2cc3c(NC(=O)CN)cccc3nc2-1
-29.2% (inactive)

Param item: O=[As](O)(O)c1ccc(Cc2ccc([As](=O)(O)O)cc2)cc1
-132% (active)

Param item: CC(C)C(=O)CP(=O)(O)O
7.02% (inactive)

Param item: O=c1[nH]cnc2[nH]cc(CN3CCCCC3)c12
3.17% (inactive)

###

ASSAY_EXPLANATION: MultiTox-Fluor Cytotoxicity Assay - LYMP1-003 - Live Cells (AID 962);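 note: cells exposed to compound for 16 hours at 37 °C; 0% = DMSO only and full loss = 92 µM tetraoctylammonium bromide; cytotoxic hits lower the live-cell protease signal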
TEST_SETTINGS: LYMP1-003 lymphoblastoid cells, MultiTox-Fluor live-cell protease fluorescence; series mostly up to 92.2 µM
Activity calls are given as the source filed them. Calls come from the whole dose curve; as a rule, active = well fitted cell-killing curve with a large enough effect; inconclusive = small, poorly fitted or top-dose-only effect; inactive = flat fitted curve, though single readings scatter.
ENDPOINT_NAME: outcome

Examples with answers:
{"columns": ["MOLECULE", "MEASUREMENT"],
 "data": [
  ["CCN(CC)CCO", "inactive"],
  ["Nc1c(Cl)cc([N+](=O)[O-])cc1Cl", "inactive"],
  ["C1CC2OC2CC1C1CO1 (stereo not given)", "inactive"],
  ["CC[N+](=O)[O-]", "inactive"]
]}

Query: outcome; subject: CCCCCc1cc(O)cc(O)c1
inactive
